Values compiled from ChEMBL document CHEMBL5665443.

- assay.system: UniProt:P78549
- Sequence (P78549 whole entry): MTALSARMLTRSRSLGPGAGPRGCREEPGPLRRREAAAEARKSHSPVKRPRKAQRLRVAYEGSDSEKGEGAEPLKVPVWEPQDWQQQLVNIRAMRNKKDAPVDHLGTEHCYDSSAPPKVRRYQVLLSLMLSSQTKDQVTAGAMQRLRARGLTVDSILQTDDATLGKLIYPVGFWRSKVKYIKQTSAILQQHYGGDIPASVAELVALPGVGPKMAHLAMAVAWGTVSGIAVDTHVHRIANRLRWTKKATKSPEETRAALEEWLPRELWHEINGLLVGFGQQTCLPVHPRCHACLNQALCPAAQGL
- measurement.context: Compound Concentration 10.0 uM, Hit No;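 further: enzyme assay tracking NTHL1 cutting and release of a quenched double-stranded DNA oligo substrate, read as fluorescence at 594 nm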
- Description: Inhibition of NTHL1 by quantifying inhibition of NTHL1-mediated cleavage and dissociation of quenched duplex DNA oligonucleotides, measured as fluorescence at 594 nm.
Attribute: inhibition
Expressed in %, but write only the number.

Observe how each entry below is paired with its result.
1. O=C(O)c1cc(F)c2nc(N3[C@@H]4CC[C@H]3C[C@@H](OCc3c(-c5ccccc5OC(F)(F)F)noc3C3CC3)C4)sc2c1 = 10.6
2. CS(=O)(=O)Nc1c(O)ccc2c1CCCC2C1=NCCN1 (stereo not given) = 13.8
3. Cc1cc(C)c(NC(=O)C2CC3CCC2C3)c(C)c1 (stereo not given) = 6.35

Query :: Could you share which inhibition value was measured for `CCCCCCCC/C=C\CCCCCCCC(N)=O` ?
Result :: 2.66

Query :: Another molecule to check: `COc1cc(F)ccc1-c1ncnc(Nc2cccc(C[S@](C)(=N)=O)c2)n1`
Result :: -0.61
